Values from the supplement of paper PMC11451515

- Tested on: SEM cells
- experiment description: cell viability relative to DMSO control; higher = less cytotoxic
- protocol conditions: RPMI 5 mM glucose + 10% FBS; 48 h; 5.12 µM
Just a reminder that ties go to f: only cell viability strictly below 70% counts as t.

{"molecule": "CCOc1cc(C(=O)Nc2ccc(Cl)c(-c3nc4ccccc4[nH]3)c2)cc(OCC)c1OCC", "assigned label": "f"}
{"molecule": "COCC(=O)NC/C=C/c1ccc2ncnc(Nc3ccc(Oc4ccc(C)nc4)c(C)c3)c2c1", "assigned label": "f"}
{"molecule": "Cc1cnc(Nc2cccc(CN3CCOCC3)c2)nc1Nc1cccc([S+](=O)([O-])NC(C)(C)C)c1", "assigned label": "t"}
{"molecule": "Cc1nnc(C(=O)NC(C)(C)c2nc(C(=O)NCc3ccc(F)cc3)c(O)c(=O)n2C)o1", "assigned label": "f"}
{"molecule": "c1coc(CNc2ncnc3nc[nH]c23)c1", "assigned label": "f"}
{"molecule": "COc1cc2c(cc1O)CCC1C2CC[C@@]2(C)C1CC[C@@H]2O (some centres undefined)", "assigned label": "t"}
{"molecule": "CC(=O)N(O)CCCCCNC(=O)CCC(=O)N(O)CCCCCNC(=O)CCC(=O)N(O)CCCCCN.C[S+](=O)([O-])O", "assigned label": "t"}
{"molecule": "O=C1\\C=C(OC2=C(C=CC=C12)C3=CC=CC4=C3SC5=C4C=CC=C5)\\N6CCOCC6", "assigned label": "f"}
{"molecule": "Clc1ccc(C(c2ccccc2Cl)C(Cl)Cl)cc1 (centres undefined)", "assigned label": "t"}

---

Reported cell viability by item:
- Tested on: NOMO1
- experiment description: cell viability relative to DMSO control; higher = less cytotoxic
- protocol conditions: RPMI 5 mM glucose + 10% dialyzed FBS; 48 h; 46.1 µM

{"compound": "Clc1ccc(C(c2ccccc2Cl)C(Cl)Cl)cc1 (stereo not drawn)", "cell viability": "99.4%"}
{"compound": "CN1CCN(CC1)C2=CC3=C([NH]C(=N3)C/4=C(\\N)C5=C(F)C=CC=C5NC4=O)C=C2", "cell viability": "53.4%"}
{"compound": "C/C=C(\\C)C(=O)N[C@@H](c1ccccc1)[C@@H](O)C(=O)O[C@H]1C[C@@]2(O)[C@@H](OC(=O)c3ccccc3)[C@@H]3[C@]4(OC(C)=O)CO[C@@H]4C[C@H](O)[C@@]3(C)C(=O)[C@H](OC(C)=O)C(=C1C)C2(C)C", "cell viability": "16.6%"}
{"compound": "CC1(C)CCC(C)(C)c2cc(NC(=O)c3ccc(C(=O)O)cc3)ccc21", "cell viability": "75.9%"}
{"compound": "CCn1c(C(=O)N(C2CC2)C2CC2)cc2c3c(ncn3C)c(Nc3cc(C)n(C)n3)nc21", "cell viability": "98.6%"}
{"compound": "Clc1ccc(CCC(Cn2ccnc2)Sc2c(Cl)cccc2Cl)cc1 (stereo not drawn)", "cell viability": "70.7%"}
{"compound": "CCc1nc(N)nc(N)c1-c1ccc(Cl)cc1", "cell viability": "35.3%"}
{"compound": "O=C(O)c1cccnc1", "cell viability": "10%"}
{"compound": "CCN(CC)CCCC(C)Nc1ccnc2cc(Cl)ccc12 (stereo not drawn)", "cell viability": "26.5%"}
{"compound": "O=C(O)c1cccc(-c2noc(-c3ccccc3F)n2)c1", "cell viability": "81.3%"}
{"compound": "COCC(=O)NC/C=C/c1ccc2ncnc(Nc3ccc(Oc4ccc(C)nc4)c(C)c3)c2c1", "cell viability": "41%"}
{"compound": "Cc1nnc(C(C)C)n1[C@@H]1C[C@H]2CC[C@@H](C1)N2CC[C@H](NC(=O)C1CCC(F)(F)CC1)c1ccccc1", "cell viability": "29.9%"}
{"compound": "NC(=O)N1CCC(CC(=O)N2CCC([C@H]3c4ncc(Br)cc4CCc4cc(Cl)cc(Br)c43)CC2)CC1", "cell viability": "69.4%"}
{"compound": "CN(C)c1ccc(-c2nc3c(N4CCN(CC(=O)Nc5nccs5)CC4)c(Cl)cnc3[nH]2)cc1", "cell viability": "70.3%"}
{"compound": "CC(C)(C)NCC(O)c1ccc(O)c(CO)c1 (stereo not drawn)", "cell viability": "47%"}
{"compound": "CC1=CC/2=C(C=C1C)N(C[C@@H](O)[C@@H](O)[C@@H](O)CO)C/3=N/C(=O)NC(=O)C3=N2", "cell viability": "90.1%"}
{"compound": "COc1cccc(OC)c1-c1cc(C(=O)NC2(C(=O)O)C3CC4CC(C3)CC2C4)nn1-c1ccnc2cc(Cl)ccc12 (stereo not drawn)", "cell viability": "105%"}
{"compound": "N#CC1(c2cccc(C(=O)Nc3cc(Oc4ccc5nc(NC(=O)C6CC6)sc5n4)ccc3F)c2Cl)CC1", "cell viability": "15.6%"}
